- System: Pasteurella multocida
- PROCEDURE DETAILS: minimum inhibitory concentration (MIC)
- CONDITION DETAILS: isolate (source animal id): 160

{"columns": ["GIVEN SMILES", "UNIT NAME", "COMPARATIVE SIGN", "minimum inhibitory concentration"],
 "data": [
  ["NC[C@@H]1O[C@H](O[C@H]2[C@@H](O)[C@H](O[C@@H]3[C@@H](O)[C@H](N)C[C@H](N)[C@H]3O[C@H]3O[C@H](CN)[C@@H](O)[C@H](O)[C@H]3N)O[C@@H]2CO)[C@H](N)[C@@H](O)[C@@H]1O", "µg/mL", "=", 32],
  ["CC[C@H]1OC(=O)C[C@@H](O)[C@H](C)[C@@H](O[C@@H]2O[C@H](C)[C@@H](O)[C@H](N(C)C)[C@H]2O)[C@@H](CCN2C[C@H](C)C[C@H](C)C2)C[C@@H](C)C(=O)/C=C/C(C)=C/[C@@H]1CO[C@@H]1O[C@H](C)[C@@H](O)[C@@H](OC)[C@H]1OC", "µg/mL", ">", 16],
  ["CN(C)[C@@H]1C(O)=C(C(N)=O)C(=O)[C@@]2(O)C(O)=C3C(=O)c4c(O)cccc4[C@@](C)(O)[C@H]3C[C@@H]12", "µg/mL", ">", 8],
  ["CC[C@H]1OC(=O)C[C@@H](O)[C@H](C)[C@@H](O[C@@H]2O[C@H](C)[C@@H](O[C@H]3C[C@@](C)(O)[C@@H](O)[C@H](C)O3)[C@H](N(C)C)[C@H]2O)[C@@H](CC=O)C[C@@H](C)C(=O)/C=C/C(C)=C/[C@@H]1CO[C@@H]1O[C@H](C)[C@@H](O)[C@@H](OC)[C@H]1OC", "µg/mL", ">", 32],
  ["CS(=O)(=O)c1ccc([C@@H](O)[C@@H](CF)NC(=O)C(Cl)Cl)cc1", "µg/mL", "=", 8]
]}
